Target: human MC5R (Homo sapiens)
Sequence (P33032 whole entry): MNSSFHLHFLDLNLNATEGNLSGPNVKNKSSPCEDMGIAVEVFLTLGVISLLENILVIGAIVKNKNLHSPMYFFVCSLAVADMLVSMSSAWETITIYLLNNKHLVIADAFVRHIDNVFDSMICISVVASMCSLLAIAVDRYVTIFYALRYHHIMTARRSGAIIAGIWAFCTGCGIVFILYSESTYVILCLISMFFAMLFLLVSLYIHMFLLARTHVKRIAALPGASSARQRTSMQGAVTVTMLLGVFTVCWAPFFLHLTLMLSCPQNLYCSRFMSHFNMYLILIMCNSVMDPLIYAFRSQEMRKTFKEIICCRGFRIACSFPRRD
Experiment: cAMP assay (antagonism of alpha-MSH) in HEK 293 cells expressing human MC5R
Conditions: HEK 293 cells transiently expressing MC5R; 10^−6 M alpha-MSH
Procedure: HEK 293 cells transiently expressing the melanocortin MC5 receptor were suspended in stimulation buffer (Hanks buffered saline solution (HBSS), 0.1% bovine serum albumin, protease inhibitors and 0.5 mM 3-Isobutyl-1-methylxanthine) at 4×10^6 cells/mL. […] Basal level (of cAMP) control wells contained stimulation buffer only (no agonist or compounds). […] After incubation, 10 μl of lysis buffer (10% Tween 20, 1 M HEPES, 0.1% BSA, protease inhibitors, ddH2O) was added to all wells to be measured. […]
pIC50: −log10 of the molar value.
MEASUREMENT TYPE: pIC50

A = CC[C@H](CN1CC[C@@H](CNC(=O)c2ccc3cc(Cl)ccc3c2)N[C@@H](CCC(=O)N2CCCCC2)C1=O)c1ccccc1
B = CC[C@H](CN1CC[C@@H](CNC(=O)c2ccc3cc(Cl)ccc3c2)N[C@@H](CCC(C)C)C1=O)c1ccccc1
[in] Of A and B , whose reported pIC50 is the larger number? Response format: the label of the selected entry.
[out] A
(A: 6.22, B: 5.22)
